Measured endpoint: melting point

Compound	melting point
COc1ccc2c(n1)C1(CO2)C(=O)N(C[C@H]2CCCO2)c2cccc(Br)c21 (stereo partly shown)	110 to 112 °C
O=C1N(Cc2ncccc2C(F)(F)F)c2cccnc2C12COc1cc3c(cc12)OCCO3 (stereo not shown)	> 250 °C
O=C1N(C[C@H]2CCCO2)c2ccccc2C12COc1c[nH]c(=O)cc12 (stereo partly shown)	> 250 °C

Exam item: For the compound shown here, COc1ccc2c(n1)C1(CO2)C(=O)N(C[C@H]2CCCO2)c2ccccc21 (stereo partly shown) , give the reported melting point.
Marked response: 52 to 56 °C

---

biological target: UniProt P11712; assay: in vitro
Sequence (P11712 whole entry): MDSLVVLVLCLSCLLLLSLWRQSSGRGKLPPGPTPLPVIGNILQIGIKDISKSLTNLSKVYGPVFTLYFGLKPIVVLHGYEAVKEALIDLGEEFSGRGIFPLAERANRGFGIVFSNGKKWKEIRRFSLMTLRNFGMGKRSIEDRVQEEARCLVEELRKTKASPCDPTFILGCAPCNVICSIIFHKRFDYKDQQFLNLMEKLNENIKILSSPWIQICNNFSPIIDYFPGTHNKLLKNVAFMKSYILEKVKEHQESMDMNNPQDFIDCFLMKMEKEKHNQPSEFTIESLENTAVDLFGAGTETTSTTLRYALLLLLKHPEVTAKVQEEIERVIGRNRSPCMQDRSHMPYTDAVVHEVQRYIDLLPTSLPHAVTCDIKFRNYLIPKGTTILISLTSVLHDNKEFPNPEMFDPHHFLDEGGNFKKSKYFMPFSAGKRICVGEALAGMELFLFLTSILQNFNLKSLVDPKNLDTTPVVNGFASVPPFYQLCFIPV
Measured endpoint: inhibition at 0.42 µM (%)
Note: unit % is implicit; provide only the numeric part.

Exam item: For the compound shown here, "Nc1ccc(S(=O)(=O)Nc2ccnn2-c2ccccc2)cc1" , give the reported inhibition at 0.42 µM.
Marked response: 50
